Hello, the source for this data is patent US20230241242A1, in case you need it.

Tested on: U87MG cells
EXPERIMENT_DESCRIPTION: Inhibition of in vitro proliferation of tumor cells by compounds (CTG, 6 days)
Format: cell-based
TEST_CONDITIONS: Homo sapiens, U-87 MG, 144 h, read-out: IC50 in inhibiting in vitro proliferation of U87 cells
Protocol: This experiment was intended to detect the inhibitory activity of the pharmaceutical compounds of the present disclosure against the in vitro proliferation of U87MG cells (Cell Bank, Chinese Academy of Sciences, Catalog #TCHu138) and SK-BR-3 tumor cells (human breast cancer cells, ATCC, Cat #HTB-30). […] 7. Plate reading: the 96-well cell culture plate was taken out and tested in a microplate reader (BMG labtech, PHERAstar FS) for chemiluminescence. […]
pIC50: −log10 of the molar value.

# MOLECULE, SYSTEM, pIC50
rows = [
    ("CC[C@@]1(O)C(=O)OCc2c1cc1n(c2=O)Cc2c-1nc1cc(F)c(C)c3c1c2[C@@H](NC(=O)C1(CO)CC1)CC3", "U87MG cells", 8.32),
    ("CC[C@@]1(O)C(=O)OCc2c1cc1n(c2=O)Cc2c-1nc1cc(F)c(C)c3c1c2[C@@H](NC(=O)C1(O)CC1)CC3", "U87MG cells", 9.64),
]
